# TARGET: SARS-CoV-2 3CLpro (Severe acute respiratory syndrome coronavirus 2)
# METHOD: biochemical
# Assay type: biochemical
# CONDITION_SUMMARY: LOPAC1280 primary screen with protease, 5 µM compound, replicate 1
PROPERTY: Replicate_1 (LOPAC_screen_w_protease)
Simply state the number, no unit and no words.

Cl.c1ccc2c(N3CCNCC3)cccc2c1 [1-(1-Naphthyl)piperazine hydrochloride] = 4.027
CCCCCCCCCCCCCCCCCCOCC(COP(=O)([O-])OCC[N+](C)(C)C)OC (centres unmarked) = 1.735
CN1CCN(CC/C=C2/c3ccccc3Sc3ccc(S(=O)(=O)N(C)C)cc32)CC1.Cl [Thiothixene hydrochloride] = 2.053
O=C(O)[C@H]1CCCN[C@H]1C(=O)O (racemic) [(±)-cis-Piperidine-2,3-dicarboxylic acid] = 0.9979
Cl.NNC(N)=O [Semicarbazide hydrochloride] = 1.447

## Task For CC(C)NCC(O)COc1cccc2[nH]ccc12 (stereo not drawn) [S(-)-Pindolol] , what is its reported Replicate_1 (LOPAC_screen_w_protease)?
## Result 1.519

## Task For CP(=O)(O)CCCN.Cl [SKF 97541 hydrochloride] , what is its reported Replicate_1 (LOPAC_screen_w_protease)?
## Result 0.8621

## Task For N[C@@H](Cc1ccc(F)cc1)C(=O)O , what is its reported Replicate_1 (LOPAC_screen_w_protease)?
## Result 4.147

----------
# TARGET: SARS-CoV-2 3CLpro (Severe acute respiratory syndrome coronavirus 2)
# METHOD: biochemical
# Format: biochemical
# CONDITION_SUMMARY: with 0.01% Triton X-100; mean ± SD of triplicate; 4 h, 30 °C; read-out: A) EC50 with Triton X-100
PROPERTY: log10 of EC50 (log10 of the value in µM)
// do not treat as linear: log10 of EC50, unit µM

O=c1oc(Cl)c(Cl)c2ccccc12 [3,4-Dichloroisocoumarin, reference compound] = 0.94
Oc1cc(O)cc(/C=C/c2ccc(O)c(O)c2)c1 [Piceatannol, reference compound] = -0.24
NC1CCc2cc(O)c(O)cc2C1 (centres unmarked) [6,7-ADTN] = 0.38
N=c1c[n+](N2CCOCC2)[n-]o1 [3-Morpholinosydnonimine] = 0.75
CN(C)C(=O)/N=N/C(=O)N(C)C [Diamide] = 1.23

Attention now turns to another entry.
## Task For CC(C)C[C@H](N)CS [l-Leucinethiol] , what is its reported log10 of EC50?
## Result 0.64

----------
# TARGET: SARS-CoV-2 3CLpro (Severe acute respiratory syndrome coronavirus 2, UniProt P0DTD1)
# METHOD: biochemical
# Format: biochemical
# CONDITION_SUMMARY: 4 h, sheet LOPAC_screen_w_protease; primary screen with protease, compound at 5 µM; replicate 2; read-out: Replicate_2
Structures can show the parent of a compound that is named as a salt.
Catalogue of inhibition at 5 µM readings, one per entry.
Output should be the measured figure followed by the unit it is expressed in.

Consider the worked cases shown below.
NS(=O)(=O)c1cc2c(cc1Cl)NC(C1CC3C=CC1C3)NS2(=O)=O (stereo not shown) [Cyclothiazide] = 1.61%
CN1[C@@H]2CC[C@H]1C[C@@H](OC(c1ccccc1)c1ccccc1N)C2 (stereo partly shown) [Aminobenztropine] = 3.53%
COc1cc(CNC(=O)CCCCCCC(C)C)ccc1O [Dihydrocapsaicin] = 1.38%

## Task For CNC(=O)OCC[N+](C)(C)C [Methylcarbamylcholine chloride] , what is its reported inhibition at 5 µM?
## Result 1.26%

## Task For CN1[C@@H]2CC[C@H]1C[C@@H](OC(c1ccccc1)c1ccccc1)C2 [Benztropine mesylate] , what is its reported inhibition at 5 µM?
## Result 5.26%

## Task For COc1cccc(OC)c1OCCNCC1CSc2ccccc2O1 (stereo not shown) [Benoxathian hydrochloride] , what is its reported inhibition at 5 µM?
## Result 3.44%

## Task For CC(C)N(CCC(C(N)=O)(c1ccccc1)c1ccccn1)C(C)C (stereo not shown) [Disopyramide phosphate] , what is its reported inhibition at 5 µM?
## Result 1.41%

## Task For C[N+]1(C)CCOC(O)(c2ccc(-c3ccc(C4(O)C[N+](C)(C)CCO4)cc3)cc2)C1 (stereo not shown) [Hemicholinium-3] , what is its reported inhibition at 5 µM?
## Result 1.08%

## Task For OC(CN1CCC(Cc2ccc(F)cc2)CC1)c1ccc(Cl)cc1 (stereo not shown) [Eliprodil] , what is its reported inhibition at 5 µM?
## Result 2.52%

## Task For Nc1cc(N2CCCCC2)nc(N)[n+]1[O-] [Minoxidil] , what is its reported inhibition at 5 µM?
## Result 1.98%

## Task For O=c1n(CCCN2CCN(c3cccc(Cl)c3)CC2)nc2ccccn12 [Trazodone hydrochloride] , what is its reported inhibition at 5 µM?
## Result 2.69%

## Task For CNc1ccc2oc(C[C@H]3O[C@@]4(CC[C@H]3C)O[C@H]([C@H](C)C(=O)c3ccc[nH]3)[C@H](C)C[C@H]4C)nc2c1C(=O)O [Calcimycin] , what is its reported inhibition at 5 µM?
## Result 4.1%

## Task For N#CC(C#N)=Cc1ccc(O)c(O)c1 [Tyrphostin 23] , what is its reported inhibition at 5 µM?
## Result 4.04%
